Molecular target: EP2 (Homo sapiens)
Assay: EP2 flipr
Assay type: cell-based
Endpoint: EC50 (µM)

[1] CCCCCC(O)c1ccc(N2CC[C@@H](Cl)[C@@H]2COCc2ccc(C(=O)O)s2)cc1 (stereo partly drawn)
[2] CCCC/C=C/c1ccc(N2CC[C@@H](Cl)[C@@H]2COCc2ccc(C(=O)O)s2)cc1
[3] CCCCCC(=O)c1ccc(N2CC[C@@H](Cl)[C@@H]2COCc2ccc(C(=O)O)s2)cc1
List these items ordered by EC50, big to small. Return value: ordered labels per request. 2, 3, 1

----------
Molecular target: EP2 (Homo sapiens, UniProt P43116)
Sequence (P43116 whole entry): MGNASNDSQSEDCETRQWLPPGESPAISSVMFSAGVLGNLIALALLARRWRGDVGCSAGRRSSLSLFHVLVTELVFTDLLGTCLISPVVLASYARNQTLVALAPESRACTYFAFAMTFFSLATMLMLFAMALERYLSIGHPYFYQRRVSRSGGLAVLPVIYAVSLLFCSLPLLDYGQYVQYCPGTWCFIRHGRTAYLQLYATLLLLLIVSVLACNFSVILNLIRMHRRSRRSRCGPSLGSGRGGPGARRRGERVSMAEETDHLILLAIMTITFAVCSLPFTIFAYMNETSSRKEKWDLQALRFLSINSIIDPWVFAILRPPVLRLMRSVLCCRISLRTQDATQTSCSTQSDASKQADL
Assay: EP2 cAMP
Format: cell-based
Endpoint: EC50 (µM)

CCCCCC(O)c1ccc(N2CC[C@@H](Cl)[C@@H]2COCc2ccc(C(=O)O)s2)cc1 (stereo partly drawn): 0.339

[I] CCCC/C=C/c1ccc(N2CC[C@@H](Cl)[C@@H]2COCc2ccc(C(=O)O)s2)cc1
[II] CCCCCC(=O)c1ccc(N2CC[C@@H](Cl)[C@@H]2COCc2ccc(C(=O)O)s2)cc1
Which has the smaller recorded EC50, I or II ? I would appreciate it if you answered with the label of your choice. II
(II: 0.017 µM, I: 0.327 µM)

----------
Let's go through some recorded Ki values for EP4 (Homo sapiens, UniProt P35408) together.
Endpoint: Ki (nM)

[A] CCCC/C=C/c1ccc(N2CC[C@@H](Cl)[C@@H]2COCc2ccc(C(=O)O)s2)cc1
[B] CCCCCC(=O)c1ccc(N2CC[C@@H](Cl)[C@@H]2COCc2ccc(C(=O)O)s2)cc1
# argmax over Ki for candidates A and B Choose, then provide that item's label. A
(A: 1490 nM, B: 1020 nM)
